residual activity values for the compounds below.
# subjectOfTest: TNK2 (human) (UniProt Q07912)
# Sequence (Q07912 whole entry, looked up): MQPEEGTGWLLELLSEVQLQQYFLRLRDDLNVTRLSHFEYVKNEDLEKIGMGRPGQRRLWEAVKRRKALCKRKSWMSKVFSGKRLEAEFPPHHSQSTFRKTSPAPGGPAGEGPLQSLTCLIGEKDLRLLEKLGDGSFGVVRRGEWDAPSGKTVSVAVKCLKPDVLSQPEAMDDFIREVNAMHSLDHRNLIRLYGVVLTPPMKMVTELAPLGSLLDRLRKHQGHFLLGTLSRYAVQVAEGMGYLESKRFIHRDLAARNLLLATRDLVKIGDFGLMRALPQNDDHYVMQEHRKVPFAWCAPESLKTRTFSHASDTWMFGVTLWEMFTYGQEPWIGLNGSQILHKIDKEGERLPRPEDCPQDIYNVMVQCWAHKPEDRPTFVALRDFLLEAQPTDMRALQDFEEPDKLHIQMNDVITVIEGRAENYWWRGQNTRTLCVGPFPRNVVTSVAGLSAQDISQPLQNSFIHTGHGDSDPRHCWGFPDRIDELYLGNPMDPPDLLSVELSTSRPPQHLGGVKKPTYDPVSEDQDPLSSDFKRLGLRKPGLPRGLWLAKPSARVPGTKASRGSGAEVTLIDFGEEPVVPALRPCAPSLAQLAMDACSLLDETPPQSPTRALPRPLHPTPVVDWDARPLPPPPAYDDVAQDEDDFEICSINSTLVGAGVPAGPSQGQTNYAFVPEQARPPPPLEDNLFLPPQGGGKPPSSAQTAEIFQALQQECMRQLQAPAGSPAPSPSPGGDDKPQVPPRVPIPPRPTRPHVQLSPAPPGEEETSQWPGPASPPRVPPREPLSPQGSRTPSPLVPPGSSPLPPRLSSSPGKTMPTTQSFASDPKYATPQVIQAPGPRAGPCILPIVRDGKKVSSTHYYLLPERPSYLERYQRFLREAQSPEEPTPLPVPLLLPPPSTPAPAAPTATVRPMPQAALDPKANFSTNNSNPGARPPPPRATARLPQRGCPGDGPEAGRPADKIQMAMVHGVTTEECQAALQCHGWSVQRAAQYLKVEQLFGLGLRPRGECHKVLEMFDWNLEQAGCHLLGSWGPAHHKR
# protocolNotes: radiometric filter-binding kinase assay, Kinase HotSpot
# appliedConditions: compound 0.5 µM; ATP 10 µM
quantityKind: residual activity (%)

structurenotation=CN(C)c1ccc(/C=C2\C(=O)Nc3ccccc32)cc1 assayvalue=101
structurenotation=c1ccc2c(-c3ccncc3)c[nH]c2c1 assayvalue=96.1
structurenotation=N#Cc1c[nH]c2c[nH]/c(=N\Cc3cccnc3)cc2/c1=N\c1ccc(F)c(Cl)c1 assayvalue=89.9
structurenotation=Ic1cccc(CSc2nnc(-c3ccncc3)o2)c1 assayvalue=101
structurenotation=N#C/C(=C\c1ccc(O)c(O)c1)C(=O)NCc1ccccc1 assayvalue=98.3
structurenotation=Fc1ccc(-c2nc3n(c2-c2ccncc2)CCS3)cc1 assayvalue=98
structurenotation=O=C1NC(=O)c2c1c1c3ccccc3[nH]c1n1cncc21 assayvalue=41.3
structurenotation=Cc1cncc2cccc(S(=O)(=O)N3CCCN(C(=O)CN)C[C@H]3C)c12 assayvalue=84.5
structurenotation=O=C1C(Cl)=C(N2C(=O)CCC2=O)C(=O)c2ccccc21 assayvalue=91.5
structurenotation=O=C1Nc2ccc(Br)cc2/C1=C\c1cc2c([nH]1)CCCC2 assayvalue=92.8
structurenotation=COc1ccc(Cl)cc1NC(=O)Nc1cc(C)nc2ccccc12 assayvalue=102
